Reference source: patent US20210147507A1

Target: chimeric Caspase-9 polypeptide
Sequence (P62942 2-108 F37V limits assumed): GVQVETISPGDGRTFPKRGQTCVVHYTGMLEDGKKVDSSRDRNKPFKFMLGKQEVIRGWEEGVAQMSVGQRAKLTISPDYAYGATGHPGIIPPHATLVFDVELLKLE
Experiment: Caspase-9 mutant classes and basal activity (Table 5)
Type: cell-based
Details: Caspase-9 mutant class; ligand IC50 compared with unmodified chimeric Caspase-9
Source text: Even though homo-dimerization of wild-type initiator Caspase-9 is energetically unfavorable, making them mostly monomers in solution [14-16], the low-level inherent basal activity of unprocessed Caspase-9 [15, 17] is enhanced in the presence of the Apaf-1-based “apoptosome”, its natural allosteric regulator [6]. […] In some examples, the amount of dimerizer administered may be determined as an amount designed to remove the highest amount, at least 80% or 90% of the modified cells. […]

Molecule	IC50
S307A (protein) GFGDVGALESLRGNADLAYILSMEPCGHCLIINNVNFCRESGLRTRTGSNIDCEKLRRRFSSLHFMVEVKGDLTAKKMVLALLELARQDHGALDCCVVVILSHGCQASHLQFPGAVYGTDGCPVSVEKIVNIFNGTSCPSLGGKPKLFFIQACGGEQKDHGFEVASTSPEDEAPGSNPEPDATPFQEGLRTFDQLDAISSLPTPSDIFVSYSTFPGFVSWRDPKSGSWYVETLDDIFEQWAHSEDLQSLLLRVANAVSVKGIYKQMPGCFNFLRKKLFFKTSASRA	much higher
F404W (protein) GFGDVGALESLRGNADLAYILSMEPCGHCLIINNVNFCRESGLRTRTGSNIDCEKLRRRFSSLHFMVEVKGDLTAKKMVLALLELARQDHGALDCCVVVILSHGCQASHLQFPGAVYGTDGCPVSVEKIVNIFNGTSCPSLGGKPKLFFIQACGGEQKDHGFEVASTSPEDESPGSNPEPDATPFQEGLRTFDQLDAISSLPTPSDIFVSYSTFPGFVSWRDPKSGSWYVETLDDIFEQWAHSEDLQSLLLRVANAVSVKGIYKQMPGCWNFLRKKLFFKTSASRA	much higher
